- Test system: MCF7 breast
- test-method-notes: NCI tumour cell line growth inhibition, 48 h; in the data active means GI50 below about 0.43 µM; inactive means the rest
Classes used: 1.0 = active, 0.0 = inactive

compound	cat
COc1ccc(C2CC(c3ccc(OC)c(OC)c3)=NN2C(=O)c2cc(OC)c(OC)c(OC)c2)cc1 (configuration not stated)	0.0
COc1ccc(/C=C2\CC(C)CC3C2=NN(C(C)=O)C3c2ccc(OC)c(OC)c2)cc1OC (configuration not stated)	0.0
CC(C)OC(=S)[S-].[Au+].c1ccc([PH+](c2ccccc2)c2ccccc2)cc1	0.0
COc1ccc(C2CC(c3cccc(Nc4ccnc5cc(Cl)ccc45)c3)=NN2c2ccc(Cl)cc2)cc1 (configuration not stated)	0.0
N#Cc1c(-c2ccc(Cl)cc2)n([O-])c2ccccc2[n+]1=O	0.0
COc1cc(C2C3=C(COC3=O)N(CCO)c3cc4c(cc32)CCC4)cc(OC)c1OC (configuration not stated)	1.0
Cc1cccc(NC(=O)c2sc3nc4c(cc3c2N)CCC4)c1C	1.0
Cn1cc(C2=C(c3cn(CCCSC(=N)N)c4ccccc34)C(=O)NC2=O)c2ccccc21	0.0
Cc1nc2cc(NC(=O)CN3CCN(CCN4C(=O)c5cccc6cccc(c56)C4=O)CC3)ccc2s1	0.0
COc1ccc(N2CCN(CC(=O)N3CCN(c4nnc(-c5ccc(Cl)cc5)c(-c5ccc(Cl)cc5)n4)CC3)CC2)cc1	0.0
Oc1c(Br)cc(Br)c2cccnc12	0.0
CCCCc1ccc(C(N)=O)nc1	0.0
